These measurements were taken from patent US20230331803A1.

- System: Sprague Dawley (SD) rats
- assayText: Acute food intake in ad libitum fed rats after a single subcutaneous administration
- Assay type: in vivo, rat
- testConditions: Table 6a, rat, single administration, 0-24 hr
Starred links: 1 amine or outer side, 2 acyl side, 3 side chain; linkers in the order of their positions; H or OH if unused. Non-standard residues stand in square brackets, D forms with d. Groups on a side chain read outwards from the residue. *: point of attachment. Decanoyl(10-(4-HOOC-PhO)) = O=C(O)c1ccc(OCCCCCCCCCC(=O)*)cc1; C20 diacid = O=C(O)CCCCCCCCCCCCCCCCCCC(=O)*; C18 diacid = O=C(O)CCCCCCCCCCCCCCCCC(=O)*; C16 diacid = O=C(O)CCCCCCCCCCCCCCC(=O)*; γGlu = O=C(O)[C@H](CCC(=O)[*:2])N[*:1]; Trx = NC[C@H]1CC[C@H](C(=O)O)CC1; AEEA = NCCOCCOCC(=O)O; Aib = CC(C)(N)C(=O)O
Listed below: Food intake relative to vehicle (%) 0-24 hr, 10 nmol/kg values for each entry.
measurementLabel: Food intake relative to vehicle (%) 0-24 hr, 10 nmol/kg

{"columns": ["substance", "unitAbbrev", "recordedMeasurement"],
 "data": [
  ["H-H[Aib]EGTFTSDVSSYLEGQAAREFIAWLVRGRK([AEEA-AEEA-γGlu-C18 diacid])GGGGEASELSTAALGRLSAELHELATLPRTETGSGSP-NH2 [Compound 0151]", "%", 29],
  ["H-H[Aib]EGTFTSDVSSYLEEK([AEEA-AEEA-γGlu-C16 diacid])AAREFIAWLVRGRGGGGGEASELSTAALGRLSAELHELATLPRTETGK([AEEA-AEEA-γGlu-C16 diacid])GSP-NH2 [Compound 0411]", "%", 81],
  ["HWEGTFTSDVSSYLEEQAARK([AEEA-AEEA-γGlu-Decanoyl(10-(4-HOOC-PhO))])FIEWLVRGK([AEEA-AEEA-γGlu-Decanoyl(10-(4-HOOC-PhO))])GEGGGGGEASELSTAALGRLSAELHELATLPRTETGSGSP-NH2 [Compound 0100]", "%", 85],
  ["H-H[Aib]EGTFTSDVSSYLEGQAAK([AEEA-AEEA-γGlu-Trx-C20 diacid])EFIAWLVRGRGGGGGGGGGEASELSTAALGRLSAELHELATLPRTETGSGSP-NH2 [Compound 0095]", "%", 55],
  ["H-H[Aib]EGTFTSDVSK([AEEA-AEEA-γGlu-C18 diacid])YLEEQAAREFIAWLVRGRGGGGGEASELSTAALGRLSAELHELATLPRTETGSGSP-NH2 [Compound 0640]", "%", 28],
  ["H-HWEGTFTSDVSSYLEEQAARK([AEEA-AEEA-γGlu-Decanoyl(10-(4-HOOC-PhO))])FIEWLVRGRGEGGGGGASELSTAALGRLSK([AEEA-AEEA-γGlu-Decanoyl(10-(4-HOOC-PhO))])ELHELATLPRTETGSGSP-NH2 [Compound 0231]", "%", 27]
]}

---

- studySystem: human amylin receptor (hAmyR3) (Homo sapiens, UniProt O60896+P30988)
- Construct: host or cells: BHK cells (Hollex-1 line: human calcitonin receptor (a) + CRE-Luc), further transfected with human RAMP3
- Sequence (P30988 25-474): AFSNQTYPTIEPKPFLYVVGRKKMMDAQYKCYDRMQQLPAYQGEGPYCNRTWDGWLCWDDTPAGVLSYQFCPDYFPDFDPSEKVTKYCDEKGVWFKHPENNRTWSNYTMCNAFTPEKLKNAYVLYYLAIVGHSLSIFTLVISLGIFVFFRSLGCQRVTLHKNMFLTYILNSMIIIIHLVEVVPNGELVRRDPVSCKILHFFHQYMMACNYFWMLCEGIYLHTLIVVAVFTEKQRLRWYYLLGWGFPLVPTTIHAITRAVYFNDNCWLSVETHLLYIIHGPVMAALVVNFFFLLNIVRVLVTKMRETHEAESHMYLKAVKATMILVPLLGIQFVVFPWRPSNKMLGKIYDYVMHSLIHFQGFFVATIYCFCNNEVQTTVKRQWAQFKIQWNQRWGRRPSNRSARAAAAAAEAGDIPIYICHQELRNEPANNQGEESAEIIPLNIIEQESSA
- Sequence (O60896 24-148): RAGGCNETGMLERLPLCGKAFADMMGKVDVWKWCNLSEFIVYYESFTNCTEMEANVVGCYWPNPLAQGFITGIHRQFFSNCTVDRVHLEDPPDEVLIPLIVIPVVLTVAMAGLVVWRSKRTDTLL
- assayText: Human amylin receptor in vitro potency assay (CRE-luciferase reporter, BHK cells)
- Format: cell-based
- testConditions: Table 4a; BHK hAmyR3/CRE-Luc cells, 3 hours; read-out: Human AmyR3 potency [EC50 (pM)]
Starred links: 1 amine or outer side, 2 acyl side, 3 side chain; linkers in the order of their positions; H or OH if unused. Non-standard residues stand in square brackets, D forms with d. Groups on a side chain read outwards from the residue. *: point of attachment. C18 diacid = O=C(O)CCCCCCCCCCCCCCCCC(=O)*; γGlu = O=C(O)[C@H](CCC(=O)[*:2])N[*:1]; εLys = N[C@@H](CCCCN[*:1])C(=O)[*:2]; AEEA = NCCOCCOCC(=O)O; Aib = CC(C)(N)C(=O)O
measurementLabel: EC50 (pM)

{"columns": ["substance", "unitAbbrev", "recordedMeasurement"],
 "data": [
  ["H-H[Aib]EGTFTSDVSSYLEGQAAK([AEEA-AEEA-γGlu-C18 diacid])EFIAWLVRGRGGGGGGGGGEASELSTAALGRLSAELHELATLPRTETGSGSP-NH2 [Compound 0052]", "pM", 19.4],
  ["H-H[Aib]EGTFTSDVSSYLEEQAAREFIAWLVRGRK([AEEA-AEEA-γGlu-C18 diacid])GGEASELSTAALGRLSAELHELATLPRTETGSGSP-NH2 [Compound 0114]", "pM", 17.5],
  ["H-H[Aib]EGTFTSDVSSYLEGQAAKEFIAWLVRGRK([εLys-AEEA-AEEA-γGlu-C18 diacid])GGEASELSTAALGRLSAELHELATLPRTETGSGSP-NH2 [Compound 0045]", "pM", 25.9]
]}

---

- studySystem: human amylin receptor (hAmyR3) (Homo sapiens, UniProt O60896+P30988)
- Construct: host or cells: BHK cells (Hollex-1 line: human calcitonin receptor (a) + CRE-Luc), further transfected with human RAMP3
- assayText: Human amylin receptor in vitro potency assay (CRE-luciferase reporter, BHK cells);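 further: BHK cells expressing human calcitonin receptor plus RAMP3 (amylin-3 receptor) with a CRE-luciferase reporter, agonist activity read as luminescence from cAMP-driven transcription, 7-point serial dilutions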
- Type: cell-based
- testConditions: Table 4a; BHK hAmyR3/CRE-Luc cells, 3 hours; read-out: Human AmyR3 potency [EC50 (pM)]
Starred links: 1 amine or outer side, 2 acyl side, 3 side chain; linkers in the order of their positions; H or OH if unused. Non-standard residues stand in square brackets, D forms with d. Groups on a side chain read outwards from the residue. *: point of attachment. C18 diacid = O=C(O)CCCCCCCCCCCCCCCCC(=O)*; C16 diacid = O=C(O)CCCCCCCCCCCCCCC(=O)*; γGlu = O=C(O)[C@H](CCC(=O)[*:2])N[*:1]; AEEA = NCCOCCOCC(=O)O; Aib = CC(C)(N)C(=O)O
Listed below: EC50 values for each entry.
measurementLabel: EC50 (pM)

{"columns": ["substance", "unitAbbrev", "recordedMeasurement"],
 "data": [
  ["H-H[Aib]EGTFTSDVSSYLEEQAARK([AEEA-AEEA-γGlu-C18 diacid])FIEWLVRGK([AEEA-AEEA-γGlu-C18 diacid])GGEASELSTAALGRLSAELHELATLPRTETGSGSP-NH2 [Compound 0128]", "pM", 110],
  ["H-H[Aib]EGTFTSDVSSYLEEQAARK([AEEA-AEEA-γGlu-C16 diacid])FIEWLVRGK([AEEA-AEEA-γGlu-C16 diacid])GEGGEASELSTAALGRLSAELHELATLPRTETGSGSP-NH2 [Compound 0086]", "pM", 78.3]
]}

---

- Tested on: Sprague Dawley (SD) rats
- assayText: Acute food intake in ad libitum fed rats after a single subcutaneous administration;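 further: food intake monitored in the HM2 system, three rats per cage kept on a reversed light cycle, with food and water freely available after the subcutaneous dose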
- Type: in vivo, rat
- testConditions: Table 6a, rat, single administration, 24-48 hr
Starred links: 1 amine or outer side, 2 acyl side, 3 side chain; linkers in the order of their positions; H or OH if unused. Non-standard residues stand in square brackets, D forms with d. Groups on a side chain read outwards from the residue. *: point of attachment. Butyryl(4-SO2NHCO(CH2)16Tz) = O=C(CCCCCCCCCCCCCCCCc1nnn[nH]1)NS(=O)(=O)CCCC(=O)*; Decanoyl(10-(4-HOOC-PhO)) = O=C(O)c1ccc(OCCCCCCCCCC(=O)*)cc1; C20 diacid = O=C(O)CCCCCCCCCCCCCCCCCCC(=O)*; C18 diacid = O=C(O)CCCCCCCCCCCCCCCCC(=O)*; C16 diacid = O=C(O)CCCCCCCCCCCCCCC(=O)*; γGlu = O=C(O)[C@H](CCC(=O)[*:2])N[*:1]; Desaminohistidyl = O=C(CCc1c[nH]cn1)*; εLys = N[C@@H](CCCCN[*:1])C(=O)[*:2]; Trx = NC[C@H]1CC[C@H](C(=O)O)CC1; AEEA = NCCOCCOCC(=O)O; Aib = CC(C)(N)C(=O)O
Lab note: compare Food intake relative to vehicle (%) 24-48 hr, 10 nmol/kg against 70%. Equal or greater, write satisfied. Smaller, write not satisfied.

{"columns": ["substance", "studySystem", "category"],
 "data": [
  ["H-H[Aib]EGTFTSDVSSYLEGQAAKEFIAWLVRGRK([εLys-AEEA-AEEA-γGlu-C18 diacid])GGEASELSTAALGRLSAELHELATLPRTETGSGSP-NH2 [Compound 0045]", "Sprague Dawley (SD) rats", "satisfied"],
  ["H-H[Aib]EGTFTSDVSK([AEEA-AEEA-γGlu-C18 diacid])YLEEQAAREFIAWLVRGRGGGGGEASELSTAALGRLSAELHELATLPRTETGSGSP-NH2 [Compound 0640]", "Sprague Dawley (SD) rats", "not satisfied"],
  ["H-H[Aib]EGTFTSDVSSYLEGQAAK([AEEA-AEEA-γGlu-C18 diacid])EFIAWLVRGRGGGEASELSTAALGRLSAELHELATLPRTETGSGSP-NH2 [Compound 0007]", "Sprague Dawley (SD) rats", "satisfied"],
  ["Desaminohistidyl-AEGTFTSDVSSYLEEQAAREFIAWLVRGRK([AEEA-AEEA-γGlu-Trx-C20 diacid])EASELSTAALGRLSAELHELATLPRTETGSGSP-NH2 [Compound 0035]", "Sprague Dawley (SD) rats", "satisfied"],
  ["H-H[Aib]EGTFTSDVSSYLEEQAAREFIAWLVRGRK(Butyryl(4-SO2NHCO(CH2)16Tz))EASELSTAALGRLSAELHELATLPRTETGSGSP-NH2 [Compound 0103]", "Sprague Dawley (SD) rats", "satisfied"],
  ["H-H[Aib]EGTFTSDVSK([AEEA-AEEA-γGlu-C16 diacid])YLEEQAARK([AEEA-AEEA-γGlu-C16 diacid])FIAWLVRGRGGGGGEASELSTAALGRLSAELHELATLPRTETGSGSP-NH2 [Compound 0516]", "Sprague Dawley (SD) rats", "satisfied"],
  ["H[Aib]EGTFTSDVSSYLEEQAARK([AEEA-AEEA-γGlu-C18 diacid])FIAWLVRGRK([AEEA-AEEA-γGlu-C18 diacid])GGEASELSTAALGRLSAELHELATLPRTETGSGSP-NH2 [Compound 0116]", "Sprague Dawley (SD) rats", "satisfied"],
  ["H-H[Aib]EGTFTSDVSSYLEGQAAK([εLys-AEEA-AEEA-γGlu-C18 diacid])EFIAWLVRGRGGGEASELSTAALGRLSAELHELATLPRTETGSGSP-NH2 [Compound 0044]", "Sprague Dawley (SD) rats", "satisfied"],
  ["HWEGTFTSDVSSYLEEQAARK([AEEA-AEEA-γGlu-Decanoyl(10-(4-HOOC-PhO))])FIEWLVRGK([AEEA-AEEA-γGlu-Decanoyl(10-(4-HOOC-PhO))])GEGGGGGEASELSTAALGRLSAELHELATLPRTETGSGSP-NH2 [Compound 0100]", "Sprague Dawley (SD) rats", "satisfied"],
  ["H-H[Aib]EGTFTSDVSSYLEEQAARK([εLys-AEEA-AEEA-γGlu-Trx-C20 diacid])FIEWLVRGRGEASELSTAALGRLSAELHELATLPRTETGSGSP-NH2 [Compound 0439]", "Sprague Dawley (SD) rats", "not satisfied"],
  ["H-H[Aib]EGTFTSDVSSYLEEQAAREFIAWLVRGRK([AEEA-AEEA-γGlu-Trx-C20 diacid])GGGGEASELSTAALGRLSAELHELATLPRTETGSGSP-NH2 [Compound 0120]", "Sprague Dawley (SD) rats", "not satisfied"],
  ["H-H[Aib]EGTFTSDVSSYLEGQAAREFIAWLVRGRGQEPK([AEEA-AEEA-γGlu-C18 diacid])GQAPEASELSTAALGRLSAELHELATLPRTETGSGSP-NH2 [Compound 0084]", "Sprague Dawley (SD) rats", "not satisfied"],
  ["H-H[Aib]EGTFTSDVSSYLEEK([AEEA-AEEA-γGlu-C16 diacid])AAREFIAWLVRGRGGGGGEASELSTAALGRLSAELHELATLPRTETGK([AEEA-AEEA-γGlu-C16 diacid])GSP-NH2 [Compound 0411]", "Sprague Dawley (SD) rats", "satisfied"],
  ["H-H[Aib]EGTFTSDVSK([AEEA-AEEA-γGlu-C20 diacid])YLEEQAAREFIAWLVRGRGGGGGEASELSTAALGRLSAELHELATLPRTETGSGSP-NH2 [Compound 0565]", "Sprague Dawley (SD) rats", "not satisfied"],
  ["H-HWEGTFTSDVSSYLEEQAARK([AEEA-AEEA-γGlu-Decanoyl(10-(4-HOOC-PhO))])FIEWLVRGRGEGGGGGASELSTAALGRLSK([AEEA-AEEA-γGlu-Decanoyl(10-(4-HOOC-PhO))])ELHELATLPRTETGSGSP-NH2 [Compound 0231]", "Sprague Dawley (SD) rats", "satisfied"],
  ["H-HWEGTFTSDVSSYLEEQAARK([AEEA-AEEA-γGlu-Decanoyl(10-(4-HOOC-PhO))])FIEWLVRGRGEGGGGGASELSTAALGRLSAELHELK([AEEA-AEEA-γGlu-Decanoyl(10-(4-HOOC-PhO))])TLPRTETGSGSP-NH2 [Compound 0232]", "Sprague Dawley (SD) rats", "satisfied"],
  ["H-H[Aib]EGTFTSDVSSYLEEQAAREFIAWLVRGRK([εLys-AEEA-AEEA-γGlu-C20 diacid])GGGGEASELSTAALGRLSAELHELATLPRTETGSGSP-NH2 [Compound 0552]", "Sprague Dawley (SD) rats", "not satisfied"],
  ["H-H[Aib]EGTFTSDVSSYLEGQAAK([AEEA-AEEA-γGlu-Trx-C20 diacid])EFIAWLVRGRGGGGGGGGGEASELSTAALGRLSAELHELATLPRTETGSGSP-NH2 [Compound 0095]", "Sprague Dawley (SD) rats", "satisfied"]
]}
